# Test system: GSH level in the liver
# test.description: GSH level in the liver after sublethal acetaminophen (Example 7)
# Assay type: in vivo
# condition.description: starved mice, acetaminophen 2.5 mmol/kg i.p., test compound 10 mmol/kg i.p. half an hour later
measurement.kind: GSH level in the liver

>>> df
                                   molecule       system_under_test        measurement_kind            result
0  CC(C)COC(=O)CNC(=O)[C@H](CS)NC(=O)CC[C@H](N)C(=O)O  GSH level in the liver  GSH level in the liver  marked elevation
1  N[C@@H](CS)C(=O)O [L-cysteine, reference compound]  GSH level in the liver  GSH level in the liver      markedly low
2  COC(=O)[C@@H](N)CS [L-cysteine methyl ester, reference compound]  GSH level in the liver  GSH level in the liver      markedly low
3  CC(C)OC(=O)CNC(=O)[C@H](CS)NC(=O)CC[C@H](N)C(=O)O  GSH level in the liver  GSH level in the liver  marked elevation
4  CCCCCCOC(=O)CNC(=O)[C@H](CS)NC(=O)CC[C@H](N)C(=O)O  GSH level in the liver  GSH level in the liver  marked elevation

Origin of values: patent US4710489A
